Catalogue of average area of peptide translocation in one telencephalic hemisphere values
System: adult zebrafish brain (telencephalic hemisphere)
Assay: Peptide translocation area in the telencephalon after CVMI (fluorescein IHC)
Conditions: injection concentration 100 μM, 5(6)-carboxyfluorescein-labelled peptide, fluorescein IHC at 1 dpi, stained area vs total hemisphere, n = 3, mean ± s.e.m.
Measurement Label: average area of peptide translocation in one telencephalic hemisphere

Substance	Value
RRRRRRRRR [PolyR, Poly-Arginine]	70 ± 4%
RKKRRQRRR [Tat]	27 ±13%
